# system-under-test: AKT (Homo sapiens)
# Construct: Kinases are expressed as either kinase domains or full length constructs; made in house
# Sequence (Q9Y243 whole entry, the tested form may be a part): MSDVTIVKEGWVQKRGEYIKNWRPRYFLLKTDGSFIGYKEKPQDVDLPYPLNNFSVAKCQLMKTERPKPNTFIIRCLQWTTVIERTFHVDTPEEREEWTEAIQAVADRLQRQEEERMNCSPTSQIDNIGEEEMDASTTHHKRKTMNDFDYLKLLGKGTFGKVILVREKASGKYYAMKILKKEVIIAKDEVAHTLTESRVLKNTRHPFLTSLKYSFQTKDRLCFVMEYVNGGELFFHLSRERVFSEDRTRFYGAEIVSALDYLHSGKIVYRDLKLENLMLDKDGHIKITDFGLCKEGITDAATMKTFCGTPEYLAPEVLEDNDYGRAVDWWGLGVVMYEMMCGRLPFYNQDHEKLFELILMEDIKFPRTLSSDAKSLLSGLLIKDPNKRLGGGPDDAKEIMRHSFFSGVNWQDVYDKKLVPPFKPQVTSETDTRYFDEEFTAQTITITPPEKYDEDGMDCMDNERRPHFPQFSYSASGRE
# test-method-notes: Kinase inhibition assay (33P transfer), AKT
# Assay type: biochemical
# run-conditions: Table 2, kinase inhibition class; read-out: AKT3-1
# Excerpt: The inhibitor compounds described herein are screened in the following manner. […] Kinases are expressed as either kinase domains or full length constructs fused to glutathione S-transferase (GST) or polyHistidine tagged fusion proteins in either E. colior Baculovirus-High Five expression systems. […]
metric-name: IC50

Check out these entries, answers already filled in.
In: Reported IC50, molecule COc1ccc(Nc2ncnc(Nc3cc(-c4ccco4)n[nH]3)n2)cc1OC [Compound 337] : ____
Out: > 11.9 µM

In: Reported IC50, molecule COc1cc(Nc2ncnc(Nc3cccc4ccccc34)n2)cc(OC)c1OC [Compound 98] : ____
Out: > 11.2 µM

In: Reported IC50, molecule COC(=O)c1ccc(-c2cc(Nc3ncnc(Nc4cccc(CC(=O)O)c4)n3)[nH]n2)cc1 [Compound 604] : ____
Out: 5.39 to 7.86 µM

In: Reported IC50, molecule COc1cc(Nc2ncnc(-n3c(N(C)C)nc4ccccc43)n2)cc(OC)c1OC [Compound 405] : ____
Out: > 10.7 µM

In: Reported IC50, molecule CN(c1cccc(Cl)c1)c1ncnc(NC2CCN(Cc3ccccc3)CC2)n1 [Compound 752] : ____
Out: > 11 µM

More entries:
In: Reported IC50, molecule COc1cc(Nc2ncnc(-n3cc(C)c4ccccc43)n2)cc(OC)c1OC [Compound 323] : ____
Out: > 11.5 µM

In: Reported IC50, molecule COc1cc(Nc2ncnc(-n3c(NCc4nccs4)nc4ccccc43)n2)cc(OC)c1OC [Compound 549] : ____
Out: > 9.17 µM

In: Reported IC50, molecule C#Cc1cccc(Nc2ncnc(Nc3cc(OC)c(OC)c(OC)c3)n2)c1 [Compound 74] : ____
Out: > 11.9 µM

In: Reported IC50, molecule O=c1[nH]c2ccccc2n1-c1ncnc(Nc2nccc3ccccc23)n1 [Compound 689] : ____
Out: > 12.7 µM

In: Reported IC50, molecule COc1cc(Nc2ncnc(-n3c(NCCO)nc4ccccc43)n2)cc(OC)c1OC [Compound 391] : ____
Out: > 10.3 µM
